test system: MALME-3M melanoma; test: NCI tumour cell line growth inhibition, 48 h
Assign satisfied to entries whose TGI meets or exceeds 10 µM; assign not satisfied to the rest.

>>> qualitative_label("CC1(/C=C/c2ccc(-c3ccccc3)cc2)CCn2cnc3ncnc(c32)N1O (stereo not given)")
"satisfied"
>>> qualitative_label("CN(N=O)N1C(=O)SCC(c2ccccc2)(c2ccccc2)C1=O")
"satisfied"
>>> qualitative_label("Clc1ccc(Nc2nnc(COc3ccccc3)c3ccccc23)cc1")
"not satisfied"
>>> qualitative_label("COC(=O)C1=C(C(=O)OC)SC2(S1)C(C(=O)OC)=C(C(=O)OC)Sc1c2ssc1=O")
"not satisfied"
>>> qualitative_label("O/N=C1/C(=C/c2ccc(Br)cc2)CCCC1C(NO)c1ccc(Br)cc1 (stereo not given)")
"satisfied"
>>> qualitative_label("CN1CCN(CCCn2c3c(sc4ncccc43)c(=O)n3nnc(-c4ccccc4)c23)CC1")
"satisfied"
>>> qualitative_label("COC(=O)c1cc(NC(=O)Cn2c3ccccc3c3ccccc32)cn1C")
"satisfied"
>>> qualitative_label("Nc1nc(N)c2c(n1)NC(c1ccc(Cl)cc1)C1CCc3ccccc3C1=N2 (stereo not given)")
"satisfied"
>>> qualitative_label("C#CCN(Cc1ccc2nc(-c3ccccc3)c(Cl)nc2c1)c1ccc(Cl)c(Cl)c1")
"satisfied"
>>> qualitative_label("CCN(Cc1c(F)cccc1C(F)(F)F)c1ccc(CO)c(Cl)c1")
"satisfied"

----------
Reported TGI values for the following compounds.
system: SK-MEL-28 melanoma; assay: NCI tumour cell line growth inhibition, 48 h
measurement label: TGI

>>> meas_value("Nc1cc2c3ccccc3ccc2c2ccccc12")
"> 100 µM"
>>> meas_value("CCOC1=C2N=C(C(CC)c3ccc(F)cc3)N=C2C(=O)c2ccccc21 (stereo not given)")
"> 89.4 µM"
>>> meas_value("CCc1c[n+]2c(cc1C1=CN3c4ccccc4[C@]45CCN6C/C(=C/CO)[C@H](C[C@H]64)[C@@H]([C@@H]1O)[C@H]35)-c1[nH]c3ccccc3c1CC2")
"> 50 µM"
>>> meas_value("CN(C)CC(O)CNC(=O)Nc1ccccc1 (stereo not given)")
"> 100 µM"
>>> meas_value("CC(=O)[C@H]1CC[C@@H]2[C@]1(C)CC=C1[C@]23C=C[C@]2(C[C@@H](O)CC[C@]12C)C(C(=O)O)C3C(=O)O (stereo not given in full)")
"> 100 µM"
>>> meas_value("O=C(NC12CC3CC(CC(C3)C1)C2)n1cnc2c(Cl)ncnc21")
"> 100 µM"
>>> meas_value("Cc1nc(-n2nc(-c3ccccc3)cc2-c2ccccc2)sc1C(/C=C\\c1ccc([N+](=O)[O-])cc1)=N/NC(=S)NN")
"> 100 µM"
>>> meas_value("Nc1ccc(Oc2ccc(C34CC5CC(C3)CC(c3ccc(Oc6ccc(N)c(O)c6)cc3)(C5)C4)cc2)cc1O")
"6.21 µM"
>>> meas_value("O=S1c2ccccc2N=C(c2cccs2)CC1c1ccccc1O (stereo not given)")
"> 100 µM"
>>> meas_value("COc1ccccc1-c1nc[nH]c1-c1ccccc1OC")
"> 100 µM"
>>> meas_value("CC1=NN(c2ccccc2)C(=O)C1N=Nc1ccc(Br)cc1C (stereo not given)")
"> 100 µM"
>>> meas_value("O=S(=O)(O)c1ccc([Se][Se]c2ccc(S(=O)(=O)O)cc2)cc1")
"> 100 µM"
>>> meas_value("O=C(C#Cc1ccccc1)N1CCCCC1")
"> 100 µM"
>>> meas_value("OC[C@@H](O)[C@H](O)[C@H](O)[C@@H](O)C1SCCCS1")
"> 100 µM"
>>> meas_value("CCOP(=O)(OCC)C(Cc1cn(S(=O)(=O)c2ccc(C)cc2)cn1)C(=O)O (stereo not given)")
"> 100 µM"
>>> meas_value("CC(NC(=O)C(NC(=O)C(NC(=O)C(F)(F)F)C(C)C)C(C)C)C(=O)Oc1c(Cl)c(Cl)c(Cl)c(Cl)c1Cl (stereo not given)")
"> 100 µM"
>>> meas_value("C1=Nc2ccc(cc2)-c2ccc(cc2)N=Cc2ccccc2OCc2cccc(n2)COc2ccccc21")
"> 100 µM"
>>> meas_value("O=C(/C=C/c1cc2ccccc2[nH]c1=O)c1ccc(O)cc1")
"19.5 µM"
>>> meas_value("Cc1ccccc1C1SCc2nc3ccccc3n21 (stereo not given)")
"> 100 µM"
>>> meas_value("N#Cc1cc([N+](=O)[O-])ccc1NC(=O)C(=O)Nn1c(=S)[nH]c2ccccc2c1=O")
"> 100 µM"

All values here come from PubChem BioAssay (NCI).
